assayed target: STING (Homo sapiens, UniProt Q86WV6, G230A/H232R/R293Q/R71H)
Sequence (Q86WV6 whole entry R71H/G230A/H232R/R293Q): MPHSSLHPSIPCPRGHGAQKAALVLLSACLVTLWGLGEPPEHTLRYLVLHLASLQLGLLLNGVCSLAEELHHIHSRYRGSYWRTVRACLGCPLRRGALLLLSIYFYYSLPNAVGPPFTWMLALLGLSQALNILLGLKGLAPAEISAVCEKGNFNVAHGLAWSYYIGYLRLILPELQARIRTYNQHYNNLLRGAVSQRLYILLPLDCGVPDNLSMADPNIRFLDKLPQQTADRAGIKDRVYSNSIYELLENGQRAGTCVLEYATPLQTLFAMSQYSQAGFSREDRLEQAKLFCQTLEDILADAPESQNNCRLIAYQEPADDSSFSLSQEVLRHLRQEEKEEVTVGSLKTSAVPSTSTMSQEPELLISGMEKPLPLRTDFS
experiment notes: STING reporter assay in THP1-Dual KO-IFNAR2 cells (2′3′cGAMP stimulation, luciferase reporter)
condition: 15 μM 2′3′cGAMP stimulation, 24 h, read-out: Pharmaron, THP1_IFNAR2 STING 24 h Luci Normalized: GeoMean EC50
reported endpoint: EC50

- compound: "CCC(=O)Nc1c[nH]c2ccc(OCc3ccc(C(F)(F)F)cc3)cc12"
  measured result: "0.2 to 1 µM"
- compound: "CC1(C(=O)Nc2c[nH]c3ccc(O[C@H]4C[C@@H](c5ccc(C(F)(F)F)cc5)C4)cc23)COC1"
  measured result: "0.2 to 1 µM"

Task: Give EC50; test system STING (Homo sapiens, UniProt Q86WV6, G230A/H232R/R293Q/R71H); compound "CC(=O)Nc1c[nH]c2ccc(CCC3(c4ccc(C(F)(F)F)cc4)COC3)cc12"
Result: 5 to 100 µM

Task: Fetch value of EC50 on STING (Homo sapiens, UniProt Q86WV6, G230A/H232R/R293Q/R71H) for O=C(Nc1c[nH]c2ccc(CCOc3ccc(C(F)(F)F)cc3)cc12)C1CC1(F)F (centres unmarked) .
Result: 0.04 to 0.2 µM

Task: Report EC50 under test system STING (Homo sapiens, UniProt Q86WV6, G230A/H232R/R293Q/R71H) for "O=C(Nc1c[nH]c2ccc(O[C@H]3C[C@@H](c4ccc(C(F)(F)F)cc4)C3)cc12)C1(CO)CCC1" .
Result: 0.2 to 1 µM

###

assayed target: STING (Homo sapiens, UniProt Q86WV6, G230A/H232R/R293Q/R71H)
experiment notes: STING reporter assay in THP1-Dual KO-IFNAR2 cells (2′3′cGAMP stimulation, luciferase reporter)
condition: 15 μM 2′3′cGAMP stimulation, 24 h, read-out: Pharmaron, THP1_IFNAR2 STING 24 h Luci Normalized: GeoMean EC50
pEC50: −log10 of the molar value.
reported endpoint: pEC50

Illustrative cases are given below, each with its answer.
- compound: "CC(=O)Nc1c[nH]c2ccc(CCOc3ccc4c(c3)N(Cc3ccccc3)C(=O)CS4)cc12 [Compound 386]"
  reported endpoint: "pEC50"
  measured result: "5.30 to 6.00"
- compound: "O=C(Nc1c[nH]c2ccc(CCOc3ccc(C(F)(F)F)cc3)cc12)C1CC(O)C1 (stereo not drawn) [Compound 310]"
  reported endpoint: "pEC50"
  measured result: "6.70 to 7.40"
- compound: "CC(=O)Nc1c[nH]c2ccc(OCC(F)(F)CN3CCC(F)(F)CC3)cc12 [Compound 112]"
  reported endpoint: "pEC50"
  measured result: "4.00 to 5.30"
- compound: "CC(=O)Nc1c[nH]c2ccc(OCC3Cc4cn(CC(F)(F)F)nc4C3)cc12 (stereo not drawn) [Compound 447]"
  reported endpoint: "pEC50"
  measured result: "4.00 to 5.30"
- compound: "CC1(F)CC(C(=O)Nc2c[nH]c3ccc(O[C@H]4C[C@@H](c5ccc(C(F)(F)F)cc5)C4)cc23)C1 (stereo partly drawn) [Compound 356]"
  reported endpoint: "pEC50"
  measured result: "6.00 to 6.70"

Task: Output reported pEC50 of the compound CC(=O)Nc1c[nH]c2ccc(CCOc3ccc(C(F)(F)F)cc3C#N)cc12 [Compound 440] on STING (Homo sapiens, UniProt Q86WV6, G230A/H232R/R293Q/R71H).
Result: 5.30 to 6.00

Task: Recall the reported pEC50 of CC(=O)Nc1c[nH]c2ccc(CCOc3ccc(C4CCOCC4)cc3)cc12 [Compound 226] on STING (Homo sapiens, UniProt Q86WV6, G230A/H232R/R293Q/R71H) and write it down.
Result: 5.30 to 6.00

Task: Look up and report pEC50, with STING (Homo sapiens, UniProt Q86WV6, G230A/H232R/R293Q/R71H) as system, for O=C(Nc1c[nH]c2ccc(O[C@H]3C[C@@H](c4ccc(C(F)(F)F)cc4)C3)cc12)C1CCOCC1 [Compound 365]
Result: 6.70 to 7.40

Task: Given COC1CC(C(=O)Nc2c[nH]c3ccc(O[C@H]4C[C@H](c5ccc(C(F)(F)F)cc5)C4)cc23)C1 (stereo partly drawn) [Compound 572] , report its pEC50 on STING (Homo sapiens, UniProt Q86WV6, G230A/H232R/R293Q/R71H).
Result: 6.70 to 7.40

Task: State, for STING (Homo sapiens, UniProt Q86WV6, G230A/H232R/R293Q/R71H), measured pEC50 of the compound listed here: O=C(Nc1c[nH]c2ccc(OCc3ccc(C(F)(F)F)cc3)cc12)C1CCOCC1 [Compound 156]
Result: 6.00 to 6.70

Task: Look up and report pEC50, with STING (Homo sapiens, UniProt Q86WV6, G230A/H232R/R293Q/R71H) as system, for O=C(Nc1c[nH]c2ccc(O[C@H]3C[C@H](c4ccc(C(F)(F)F)cc4)C3)cc12)C1CC(O)C1 (stereo partly drawn) [Compound 573]
Result: 6.70 to 7.40

Task: Enter measured pEC50, system STING (Homo sapiens, UniProt Q86WV6, G230A/H232R/R293Q/R71H), for the compound shown: C[C@H]1C[C@H](C(=O)Nc2c[nH]c3ccc(OCC[C@@H]4C[C@@H]5CN(CC(F)(F)F)C[C@@H]5C4)cc23)C1 [Compound 341]
Result: 6.00 to 6.70

Task: Give pEC50 for O=C(Nc1c[nH]c2ccc(O[C@H]3C[C@@H](c4ccc(C(F)(F)F)cc4)C3)cc12)C1CC(CO)C1 (stereo partly drawn) [Compound 158] tested on STING (Homo sapiens, UniProt Q86WV6, G230A/H232R/R293Q/R71H).
Result: 6.70 to 7.40

Task: Provide STING (Homo sapiens, UniProt Q86WV6, G230A/H232R/R293Q/R71H) pEC50 reading for CC(=O)Nc1c[nH]c2ccc(CCOc3ccc(C4CCN(CC(F)(F)F)CC4)cc3)cc12 [Compound 170] .
Result: 6.00 to 6.70

Task: Enter measured pEC50, system STING (Homo sapiens, UniProt Q86WV6, G230A/H232R/R293Q/R71H), for the compound shown: O=C(Nc1c[nH]c2ccc(O[C@H]3C[C@@H](c4ccc(C(F)(F)F)cc4)C3)cc12)C1CC1(F)Cl (stereo partly drawn) [Compound 575]
Result: 6.00 to 6.70
